system: Plasmodium berghei; assay: Screen against P. berghei liver stage (PbLuc), transformed with Luciferase, at 10uM; assay type: functional, HepG2; settings: tested at 10 uM
The whole screen tested about 69,000 compounds, of which about 8,600 (12%) showed an effect of 50% or more. For the sample, strong results were picked, then their nearest neighbours and some compounds at random.

molecule	INHIBITION, %
Cc1nn(CC(=O)O)c2nccc(-c3ccc(F)cc3)c12	39.5
CCc1cc(C(=O)N[C@H]2CN(CCS(C)(=O)=O)C[C@@H]2C2CC2)[nH]n1	55
Cc1cnc(C(=O)N[C@H]2CN(CCS(C)(=O)=O)C[C@@H]2C2CC2)cn1	53.9
CC(=O)N1CCC(N[C@@H]2CC[C@@H]2NS(=O)(=O)c2cccnc2)CC1	46.9
Cc1c(C(=O)N[C@H]2CN(CCS(C)(=O)=O)C[C@@H]2C2CC2)cnn1C	29
O=C(NS(=O)(=O)c1cccnc1)C1CC(c2ccccc2)=NO1 (stereo not drawn)	28.7
Cc1[nH]ccc1C(=O)N[C@H]1CN(CCO)C[C@@H]1C1CC1	9.89
CS(=O)(=O)NC1CCCN(C(=O)NCc2cccnc2)C1 (stereo not drawn)	-6.62

###

system: Plasmodium berghei; experiment: Screen against P. berghei liver stage (PbLuc), transformed with Luciferase, at 10uM; format: functional, HepG2; conditions: tested at 10 uM
Among all 69,000 compounds or so, about 8,600 (12%) showed an effect of 50% or more. The full list was thinned out, with strong results kept by preference.
Item-by-item account of INHIBITION

molecule	INHIBITION [%]
Cc1ccn(-c2ccccc2NCc2ccccn2)n1	2.37
CCn1cc(S(=O)(=O)NC2(CN3CCOCC3)CCCCC2)c(C)n1	-10.5
CC1CN(C)CCN1C(=O)NCCCn1ccnc1 (stereo not drawn)	60.1
CC1COCCN1C(=O)NCCn1ccnc1 (stereo not drawn)	-3.94
CC1COCCN1C(=O)NCCCn1ccnc1 (stereo not drawn)	24.8
Cc1ncc(CN2CCCC(c3nc4ccccc4n3C(C)C)C2)s1 (stereo not drawn)	-21.4
COc1ccc(C2CCCN2C(=O)NCCn2ccnc2)cc1 (stereo not drawn)	21.425
CN1CC(=O)N(c2cnn(C)c2)CC12CCN(CC1CC1)C2 (stereo not drawn)	30.3

###

The following compounds are listed with their measured INHIBITION values.
tested on: Plasmodium berghei; assay: Screen against P. berghei liver stage (PbLuc), transformed with Luciferase, at 10uM; assay type: functional, HepG2; settings: tested at 10 uM
The campaign covered roughly 69,000 compounds. About 8,600 (12%) showed an effect of 50% or more. The sample holds strong results, similar compounds and a random draw of the others, so the mix is not that of the screen.

compound	unit.name	INHIBITION
O=C(CCNc1ncccn1)N1CCCN(c2nccs2)CC1	%	33.7
Cn1ncc2c(NC3CCC3)nc(-c3ccncc3)nc21	%	33.7
COc1ccc(F)cc1C(=O)C1CCCN(Cc2cnc(C)s2)C1 (centres undefined)	%	47.2
CC(C)N1CCCN(c2nc(-c3cccnc3)nc3c2cnn3C)CC1	%	86.6
COc1ccc(C(=O)C2CCCN(Cc3cnn(C)c3C)C2)c(OC)c1 (centres undefined)	%	14.3
NC(=O)COc1ccc(CNCc2ccc(F)cc2)cc1	%	9.52
Cn1ncc2c(N3CC(N4CCCCC4)C3)nc(-c3ccncc3)nc21	%	22.6
Cc1nn(-c2ccccc2)c2c1C(c1ccc(C(=O)O)cc1)CC(=O)N2 (centres undefined)	%	32.7
CCC(=O)N1CCCN(Cn2nc(C)c(Br)c2C)CC1	%	56.1
CSc1ccc(C(=O)C2CCCN(C(=O)CCn3cncn3)C2)cc1 (centres undefined)	%	22.2
CCN(CC)S(=O)(=O)N1C[C@@H](c2ccccc2)[C@H]2[C@H]1CCCCCN2C	%	51.7
CNc1cncc(C2CCCN2C(=O)Cn2c(=O)oc3ccccc32)n1 (centres undefined)	%	23.4
O=C(c1cccs1)N1CCC(n2nc(-c3ccco3)ccc2=O)CC1	%	50.6
COC(=O)N1CCCN(Cn2nc(C)c(Br)c2C)CC1	%	13
Cc1cnc(CN2CCOC(Cn3nc(C)cc3C)C2)cn1 (centres undefined)	%	32.9
Cc1ccc(-n2nc(C)c3c2NC(=O)CC3c2cnc(N)s2)cc1 (centres undefined)	%	62.6
CC(C)COC(=O)N1CC(=O)N(Cc2ccco2)CC(O)C1 (centres undefined)	%	47.2
CO[C@H]1CN(C(=O)c2cccc(C)n2)CC[C@@]12CCCO2	%	21.7
CC(NC(=O)Nc1ccc(-n2cncn2)cc1)C(=O)NC(C)(C)C (centres undefined)	%	41.4
CN1[C@@H]2CC[C@H]1CN(c1nc(-c3ccncc3)nc3c1cnn3C)CC2	%	71.3
CCC(C)(C)CC(=O)NC(C)C(=O)Nc1ccc(-n2cncn2)cc1 (centres undefined)	%	26
O=C1CCC2(CCC(NC3CCOCC3)CC2)N1Cc1ccccc1 (centres undefined)	%	-47.9
CC(C)OCCCN(CC(=O)N1CCNCC1)C(=O)c1ccc(F)cc1	%	55.7
CCn1ncc(CN2CCCC(n3c(=O)oc4ccccc43)C2)c1C (centres undefined)	%	4.7
CCN(Cc1ccncc1)c1cc(C2CCN2C(C)=O)nc(C)n1 (centres undefined)	%	19.775
CC(C)S(=O)(=O)N1C[C@@H](c2ccccc2)[C@H]2[C@H]1CCCCCN2C	%	16.5
COCCN1CCC(C)(c2cc(O)[nH]n2)CC1	%	9.05
CN1CCCCC[C@@H]2[C@@H]1[C@H](c1ccccc1)CN2C(=O)c1ccccn1	%	-37
CC(C)C(=O)N1CCC(n2nc(-c3ccco3)ccc2=O)CC1	%	61.7
Cc1nn(CCC(=O)NC2CCCOC2)c(C)c1C (centres undefined)	%	3.35
O=S(=O)(N1CCCC1)N1CC[C@H](c2ccccc2)[C@H]2NCCCC[C@H]21	%	52
Cc1c(CN2CCCC(C(=O)c3ccc(C(C)(C)C)cc3)C2)cnn1C (centres undefined)	%	89.4
Cn1ncc2c(N3CC[C@H](O)C3)nc(-c3ccncc3)nc21	%	19.8
Cn1ncc2c(N[C@@H]3C[C@H]4CC[C@@H]3C4)nc(-c3ccncc3)nc21	%	35.1

###

tested on: Plasmodium berghei; test: Screen against P. berghei liver stage (PbLuc), transformed with Luciferase, at 10uM; format: functional, HepG2; conditions: tested at 10 uM
The whole screen tested about 69,000 compounds, of which about 8,600 (12%) showed an effect of 50% or more. The sample as a whole holds a higher share of strong results than the screen did.
Listing of recorded INHIBITION by entry.

compound	INHIBITION (%)
CCN(C)c1ncnc2c1CCN(S(=O)(=O)c1ccccc1)CC2	43.9
COCCN1C[C@@H]2CC[C@H]1CN(C(=O)CCc1c(C)nn(C)c1C)C2	27.5
Cc1nc(C2CCN(C(=O)c3cc(C4CC4)[nH]n3)CC2)no1	11.9
Cc1ccc(CN2CCc3onc(COc4cccnc4)c3C2)s1	27.6
Cc1ccc(S(=O)(=O)NC[C@H]2OC[C@@H](NCc3ccncc3)[C@@H]2O)cc1	53.2
Cc1ccc(S(=O)(=O)NC[C@H]2OC[C@@H](NCc3cccnc3)[C@@H]2O)cc1	57
CC(=O)N1[C@H](CN(C)C)C[C@@H]2CN(C(=O)c3cccc(F)c3)CC[C@@H]21	29.9
COc1ccccc1N1CCC(CNCc2cccc(O)c2)C1 (stereo not drawn)	37.5

###

system: Plasmodium berghei; test: Screen against P. berghei liver stage (PbLuc), transformed with Luciferase, at 10uM; type: functional, HepG2; conditions: tested at 10 uM
About 8,600 (12%) of roughly 69,000 compounds showed an effect of 50% or more. For the sample, strong results were picked, then their nearest neighbours and some compounds at random.
Label rule, in plain words: INHIBITION of 30% and up is true (1), under 30% is false (0).

compound	assigned.class
O=C(COc1ccccc1F)NCCC(O)c1ccoc1 (stereo not given)	false (0)
Cc1ccc(CN2CCC3(CC2)CCN(C(=O)c2cccnc2)C3)o1	true (1)
Cc1nc(CN2C(=O)C[C@@H]3[C@@H]2CCN3CC2CCOCC2)cs1	false (0)
Cc1nc(CN2C(=O)CC[C@@H]3[C@H]2CCN3C2CCOCC2)cs1	true (1)
Cc1nc(CN2CCC3(CC2)CCN(C(=O)c2cscn2)C3)cs1	true (1)
CCOc1ccccc1C(=O)NCCC(O)c1ccoc1 (stereo not given)	true (1)
CCn1nc(C)cc1C(=O)N1C[C@H]2CCC[C@@]2(COc2ccccn2)C1	false (0)
COc1ccc(C(=O)C2CCCN(Cc3cccc(F)c3)C2)c(OC)c1 (stereo not given)	true (1)
CCOC(=O)NCCC(O)c1ccoc1 (stereo not given)	true (1)
COc1ccc(C(=O)C2CCCN(Cc3ccncc3)C2)cc1OC (stereo not given)	true (1)
